- Tested on: M. smegmatis transposon mutant Tn1 (MshC deficient)
- Assay type: cell-based
- Recorded Conditions: Tn1, from MIC
- Experimental: To test this hypothesis, Tn1, Tn2, and I64 were grown on PBT plates supplemented with increasing amounts of the alkylating agents mBBr, iodoacetamide, and 1-chloro-2,4-dinitrobenzene (CDNB). The alkylating agents were poured into the molten agar.
Measured increase in sensitivity compared to wild type mc^2155, listed per entry.
Result Type: increase in sensitivity compared to wild type mc^2155

> print(dat)
                                   compound  reported.result
1  O=[N+]([O-])c1ccc(Cl)c([N+](=O)[O-])c1 [CDNB, 1-chloro-2,4-dinitrobenzene]         2-3 fold
2  Cc1c(C)n2c(CBr)c(C)c(=O)n2c1=O [mBBr, monobromobimane]           4 fold
